Examples of sequences with documented folding enthalpy follow.
experiment: folding enthalpy; higher = less favourable; fluorescence melt of hairpins on a sequencing array, two-state fit
condition.details: sodium 0.088 M
Number in kcal/mol, nothing else.

These solved cases illustrate the format of a correct answer.
GGCACAGAAATGTGCC ((((((....)))))): -35.9
GTATGCGAAAGCAAGTAC ((((((....)))..))): -8.53
GCCGCACGAAAGTGGGC (((.(((....)))))): -20.9
GTATGCGGAAACGCACAC ((.((((....)))).)): -15.4
GCCCAGCGAAAGCCCGGC (((..((....))..))): -15.6

Ask: For the sequence GGAGTGCGAAAGCATTCC (((.(((....))).))) , give its measured folding enthalpy value.
Result: -30.4

Ask: For the sequence GAGAGGGGAAACTCTCTC (((((.(....).))))) , give its measured folding enthalpy value.
Result: -26.2

Ask: For the sequence GAGCTTGAAAAAGCTC ((((((....)))))) , give its measured folding enthalpy value.
Result: -41.6

Ask: For the sequence CTTTGGAAACAAAG (((((....))))) , give its measured folding enthalpy value.
Result: -22.4

Ask: For the sequence GCTCGGGCGAAAGCCAGC (((..(((....)))))) , give its measured folding enthalpy value.
Result: -8.16

Ask: For the sequence GTGCGGGGAAACCTGCAC ((((.((....)).)))) , give its measured folding enthalpy value.
Result: -29.3

---

experiment: folding enthalpy; higher = less favourable; fluorescence melt of hairpins on a sequencing array, two-state fit
condition.details: sodium 0.088 M
Examples of sequences with documented folding enthalpy follow.
Number in kcal/mol, nothing else.

These solved cases illustrate the format of a correct answer.
GAGGCGGGAAACCGTCTC (((.(((....))).))): -38.3
GGAGTAGGAAACCACTCC (((((.(....).))))): -28.3
GGTTCAGAAATGAACC ((((((....)))))): -38.8

Ask: For the sequence GTACCCCGAAAGGGTAC (((.(((....)))))) , give its measured folding enthalpy value.
Result: -28.3

Ask: For the sequence GCCTAGGGAAACTTGGGC (((.(.(....).).))) , give its measured folding enthalpy value.
Result: -28.3

Ask: For the sequence GCGATCGGAAACGGTTGC ((.(.((....)).).)) , give its measured folding enthalpy value.
Result: -29.6

Ask: For the sequence GAGCCCCCGAAAGGGCTC (((..(((....)))))) , give its measured folding enthalpy value.
Result: -32.3

Ask: For the sequence GCGACAGGAAACCGTCGC (((((.(....).))))) , give its measured folding enthalpy value.
Result: -43.4

Ask: For the sequence GATCGTCAAACGATC ((((((...)))))) , give its measured folding enthalpy value.
Result: -31.7

Ask: For the sequence GGTGTAGAAATACACC ((((((....)))))) , give its measured folding enthalpy value.
Result: -29.6

Ask: For the sequence GTTCTCGAAAGAGTCAAC ((((((....)))..))) , give its measured folding enthalpy value.
Result: -10.2

Ask: For the sequence GCATTGCGAAAGCATTGC (((.(((....))).))) , give its measured folding enthalpy value.
Result: -52.2

Ask: For the sequence GATCTCGACAGAGATC ((((((....)))))) , give its measured folding enthalpy value.
Result: -41.9

Ask: For the sequence GCTTTCCCGAAAGGGAGC (((..(((....)))))) , give its measured folding enthalpy value.
Result: -10.2

Ask: For the sequence GTTCTCGAAAGAGGAAC ((((((....))).))) , give its measured folding enthalpy value.
Result: -20.8

Ask: For the sequence GTTATCCGAAAGGAAAC (((.(((....)))))) , give its measured folding enthalpy value.
Result: -14.5

Ask: For the sequence GATCCGTACTCGGATC ((((((....)))))) , give its measured folding enthalpy value.
Result: -37.9

Ask: For the sequence GTTATCCGAAAGGACAAC (((.(((....))).))) , give its measured folding enthalpy value.
Result: -26.3

Ask: For the sequence GTATATCGAAAGATTAC (((.(((....)))))) , give its measured folding enthalpy value.
Result: -14.6

Ask: For the sequence GGCTCGCGAAAGCGGCC (((.(((....)))))) , give its measured folding enthalpy value.
Result: -19.2

Ask: For the sequence GGGCCAGGAAACCAGCCC ((((..(....)..)))) , give its measured folding enthalpy value.
Result: -26.8

---

experiment: melting temperature; fluorescence melt of hairpins on a sequencing array, two-state fit, raised by 9.35 °C to match UV melts
condition.details: sodium 0.088 M
Rule: Tm under 50 °C gives false, otherwise true.

Reference set (4 entries):
CGAACGGAAACGTACTCG ((((((....)))..))): false
GGACTTGGAAACAAGTCC (((((((....))))))): true
GGTACGGAAACGTACC ((((((....)))))): true
GTGATGGCGAAAGCCCAC (((..(((....)))))): false

Ask: Textbook exercise: given the entry CGGCCCCGGAAACGGCCG (((..(((....)))))) , state whether its Tm is greater than or equal to 50 °C.
Result: true

---

experiment: melting temperature; fluorescence melt of hairpins on a sequencing array, two-state fit, raised by 9.35 °C to match UV melts
condition.details: sodium 0.088 M
Examples of sequences with documented Tm follow.
Number in °C, nothing else.

CTTTGGAAACAAAG (((((....))))): 37.1
GCCCTGCGAAAGCAGAGC ((.((((....)))).)): 60.4

Ask: For the sequence GTCCCTGGAAACAGAGAC (((.(((....))).))) , give its measured Tm value.
Result: 36.3

Ask: For the sequence GGATTCGGAAACGAGTCC (((.(((....))).))) , give its measured Tm value.
Result: 51.1

Ask: For the sequence GGCGTCGAAAGACTGCC ((((((....))).))) , give its measured Tm value.
Result: 57

Ask: For the sequence GGCCCCGGAAACGGAGCC (((.(((....))).))) , give its measured Tm value.
Result: 56.6

Ask: For the sequence GCACAACGAAAGTTCTGC (((.(((....))).))) , give its measured Tm value.
Result: 36.8

Ask: For the sequence GAGTCGCCGAAAGGCCTC (((..(((....)))))) , give its measured Tm value.
Result: 29.3

Ask: For the sequence GTCTTGACGAAAGTCGAC (((..(((....)))))) , give its measured Tm value.
Result: 35.5

Ask: For the sequence GAGGTTCCGAAAGGACTC (((..(((....)))))) , give its measured Tm value.
Result: 31.6

Ask: For the sequence GTCCCCGAAAGGGCCGAC ((((((....)))..))) , give its measured Tm value.
Result: 33

Ask: For the sequence GCGTTGACGAAAGTCCGC (((..(((....)))))) , give its measured Tm value.
Result: 51.4

Ask: For the sequence GGCGACACGAAAGTGGCC (((..(((....)))))) , give its measured Tm value.
Result: 53.1

Ask: For the sequence GATCGTAGGCACGATC ((((((....)))))) , give its measured Tm value.
Result: 54.2

Ask: For the sequence GACAACGAAAGTTTGTC ((((((....))).))) , give its measured Tm value.
Result: 47.3

Ask: For the sequence GATACGGGAAACCGTGTC ((.((((....)))).)) , give its measured Tm value.
Result: 49.2

Ask: For the sequence GCGTCGCGAAAGCTACGC ((((.((....)).)))) , give its measured Tm value.
Result: 66.9

Ask: For the sequence GAAGCCGGAAACAGCTTC (((((.(....).))))) , give its measured Tm value.
Result: 42.8

---

experiment: melting temperature; fluorescence melt of hairpins on a sequencing array, two-state fit, raised by 9.35 °C to match UV melts
condition.details: sodium 0.088 M
Our labelling divides records by Tm into ranges: class 1 (below 40 °C), class 2 (40 °C to below 50 °C), class 3 (50 °C or more)

GTCGTCGAAAGACATGAC ((((((....)))..))): class 1
GCACGTCGAAAGACTGC (((.(((....)))))): class 3
GAGAGCGAAAGCTTACTC ((((((....)))..))): class 1
GACCAACGAAAGTTCGTC (((.(((....))).))): class 1
GAAAGTGGAAACATTTTC ((((.((....)).)))): class 1
GTCTCGGCGAAAGCCGAC (((..(((....)))))): class 1
GCACACGGAAACGTATGC (((.(((....))).))): class 2
GTGGTGGGAAACCGCTAC ((.(.((....)).).)): class 2
GTGAACGAAAGTTGACAC ((((((....)))..))): class 1
GGCGACGAAAGTCCGCC ((((((....))).))): class 3

Ask: Which Tm band matches GACTGCGAAAGCACGTC ((((((....))).))) ?
Result: class 3

Ask: Which Tm band matches GATCCCAAGTGGGATC ((((((....)))))) ?
Result: class 3

Ask: Which Tm band matches GAGGCCCGAAAGGGCTC (((.(((....)))))) ?
Result: class 3

Ask: Which Tm band matches GCTCGAGGAAACTTGGGC ((.(.((....)).).)) ?
Result: class 1

Ask: Which Tm band matches GTAAGCGAAAGCTACTAC ((((((....)))..))) ?
Result: class 2

Ask: Which Tm band matches GCGCGCGAAAGCGACCGC ((((((....)))..))) ?
Result: class 3

Ask: Which Tm band matches GTGGTGCGAAAGCATCAC (((.(((....))).))) ?
Result: class 3

Ask: Which Tm band matches GAAGCGCCGAAAGGCTTC (((..(((....)))))) ?
Result: class 1

Ask: Which Tm band matches GCGTACCGAAAGGTCGC (((.(((....)))))) ?
Result: class 3

Ask: Which Tm band matches GCGTTTCGAAAGAACCGC (((.(((....))).))) ?
Result: class 3

Ask: Which Tm band matches TAGTTGAAAAACTA (((((....))))) ?
Result: class 1

Ask: Which Tm band matches TTATGGAAACATAA (((((....))))) ?
Result: class 1

Ask: Which Tm band matches GTCGACGAAAGTCTAGAC ((((((....)))..))) ?
Result: class 2

Ask: Which Tm band matches GACAACGAAAGTTACGTC ((((((....)))..))) ?
Result: class 1

Ask: Which Tm band matches GCGCACGAAAGTGTACGC ((((((....)))..))) ?
Result: class 3

Ask: Which Tm band matches GGCAGTCGAAAGACGGCC (((.(((....))).))) ?
Result: class 3
